Measured PBM binding z-score by item
Test system: RARg:RXRa (NR concentration 270 nM, RXRa partner concentration 90 nM)
Experiment: PBM binding z-score (relative to random genomic background probes); higher = stronger binding; sequences stand for … in GC…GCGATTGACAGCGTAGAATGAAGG
Please reply with the value in numeric form only.

Some solved cases for reference:
[[record]]
sequence_chain = "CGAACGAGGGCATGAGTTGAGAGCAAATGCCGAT"
measured_endpoint = "PBM binding z-score"
meas_value = 1.46

[[record]]
sequence_chain = "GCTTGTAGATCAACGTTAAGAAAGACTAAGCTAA"
measured_endpoint = "PBM binding z-score"
meas_value = -0.256

[[record]]
sequence_chain = "CCTACTGGGCCAAAGGTCGTTGATTCCAATGCTC"
measured_endpoint = "PBM binding z-score"
meas_value = 2.66


Shift focus to the following entry.
Please provide the recorded PBM binding z-score for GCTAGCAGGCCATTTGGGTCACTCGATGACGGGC , tested on RARg:RXRa (NR concentration 270 nM, RXRa partner concentration 90 nM).
0.925
